# Tested on: NCI-H522 lung
# procedure summary: NCI-60 one-dose screen, 48 h (100 = growth as untreated, 0 = no growth, -100 = all killed)
# condition parameters: 10 µM unless noted
This is part of a sample that, as a whole, favours compounds with a hit. Of some 83,000 tested, about 20% had one in any assay.
growth vs -30%: at or above is true (1), below is false (0).

>>> answer_label("CCC(O)C(C)(C)C (stereo unspecified)")
"true (1)"
>>> answer_label("O=C1/C(=C/c2ccc([N+](=O)[O-])o2)Oc2ccc(Cl)cc21")
"false (0)"
>>> answer_label("Cc1c(C(N)=O)sc2c1C(=O)N(Cc1ccccc1)C1=NN=C(c3ccc(Cl)cc3)CN12")
"true (1)"
>>> answer_label("COC(=O)[C@]12CC[C@@H](C)[C@H](C)[C@@H]1C1=CC[C@@H]3[C@@]4(C)C[C@@H](OC(=O)c5ccco5)[C@H](O)[C@@](C)(CO)[C@@H]4[C@H](O)C[C@@]3(C)[C@]1(C)CC2")
"false (0)"
>>> answer_label("CCN(CC)c1ccc(CN(CC(=O)c2ccc(Cl)c(Cl)c2)Cc2ccccc2)cc1")
"true (1)"
>>> answer_label("COc1cc2c(C#N)n3c(c2cc1OC)C(=O)C(c1ccccc1)Oc1ccccc1-3 (stereo unspecified)")
"false (0)"

* * *

Overview of recorded growth for various compounds
# Test system: NCI-H460 lung
# procedure summary: NCI-60 one-dose screen, 48 h (100 = growth as untreated, 0 = no growth, -100 = all killed)
# condition parameters: 10 µM unless noted
The panel holds about 83,000 compounds, 20% with a hit somewhere; the sample as a whole holds those more often.
metric name: growth (%)

>>> reported_measurement("O=C1C(=O)c2ccc(Br)cc2-c2cc(Br)ccc21")
78.8
>>> reported_measurement("CC(C)COCC(CN(Cc1ccccc1)c1ccccc1)N1CCCC1 (centres undefined)")
43.8
>>> reported_measurement("CCOC(=O)/C=C(/C)Sc1cc(O)c2ccccc2c1O")
-64
>>> reported_measurement("c1cnc2ccc3ncccc3c2c1")
105
>>> reported_measurement("Cc1nn(-c2ccc(Cl)cc2)c2nc3c(nc12)c(=O)oc1ccccc13")
109
>>> reported_measurement("COC1CC2CCC(C)C(O)(O2)C(=O)C(=O)N2CCCCC2C(=O)OC(C(C)CC2CCC(O)C(OC)C2)CC(=O)C(C)C=C(C)C(O)C(OC)C(=O)C(C)CC(C)/C=C/C=C/C=C1C (centres undefined)")
43.1
>>> reported_measurement("CCC(CC)NCCCCCNc1cc(OC)cc2cccnc12")
105
>>> reported_measurement("CCN(CC)c1ccc(C(O)C2=CC(=O)c3ccccc3C2=O)cc1 (centres undefined)")
7.97
>>> reported_measurement("CO[C@H]1CC(O[C@@H]2/C(C)=C/C[C@@H]3C[C@@H](C[C@]4(CC[C@H](C)[C@@H](C5CCCCC5)O4)O3)OC(=O)[C@@H]3C=C(C)/C(=N/O)[C@H]4OC/C(=C\\C=C\\[C@@H]2C)[C@]43O)O[C@@H](C)C1O (some centres undefined)")
-82.3

* * *

# Test system: SF-295 CNS
# procedure summary: NCI-60 one-dose screen, 48 h
# condition parameters: 10 µM unless noted
This is part of a sample that, as a whole, favours compounds with a hit. Of some 83,000 tested, about 20% had one in any assay. Calls of active or inactive are those of the source. How the source made its calls: active means growth percent below 10; inactive means the rest.
Outcomes: T (active), F (inactive)

>>> answer_label("Cc1cc(C)c(OC(=O)CSc2nc3ccccc3c(=O)n2CCc2ccccc2)cc1C")
"F"
>>> answer_label("CCN(CC)c1ccc(CN(CC(=O)c2ccc(Cl)c(Cl)c2)Cc2ccccc2)cc1")
"F"
>>> answer_label("CC(C)COCC(CN(Cc1ccccc1)c1ccccc1)N1CCCC1 (stereo not given)")
"F"
>>> answer_label("COc1ccc(-c2csc(NC(=O)c3cc(O)c(O)c(O)c3)n2)cc1")
"F"
>>> answer_label("COc1cc(C2CC(=O)Nc3c2cc(Br)c2ccccc32)cc(Br)c1OC (stereo not given)")
"T"
>>> answer_label("Fc1ccc(-c2nc(Nc3ccc(-c4nc5ccccc5[nH]4)cc3)nc(N3CCOCC3)n2)cc1")
"T"
>>> answer_label("CC(C)C(=O)Cc1cnccn1")
"F"
>>> answer_label("CCCCCCC/C(=N\\N=C(N)N)c1ccc(O)cc1")
"F"
>>> answer_label("O=C1c2ccccc2C(=O)c2c1cccc2-n1nnc2ccccc21")
"F"
>>> answer_label("CO[C@H]1/C=C/O[C@@]2(C)Oc3c(C)c(O)c4c(O)c(c(/C=N/N5C(C)CN(Cc6ccccc6)CC5C)c(O)c4c3C2=O)NC(=O)/C(C)=C\\C=C\\[C@H](C)[C@H](O)[C@@H](C)[C@@H](O)[C@@H](C)[C@H](OC(C)=O)[C@@H]1C (stereo not given in full)")
"F"

Every entry's value here was drawn from PubChem BioAssay (NCI).
